- system: GCase (Homo sapiens, UniProt P04062)
- Construct: endogenous in cells; host or cells: HeLa cells
- Sequence (P04062 40-536): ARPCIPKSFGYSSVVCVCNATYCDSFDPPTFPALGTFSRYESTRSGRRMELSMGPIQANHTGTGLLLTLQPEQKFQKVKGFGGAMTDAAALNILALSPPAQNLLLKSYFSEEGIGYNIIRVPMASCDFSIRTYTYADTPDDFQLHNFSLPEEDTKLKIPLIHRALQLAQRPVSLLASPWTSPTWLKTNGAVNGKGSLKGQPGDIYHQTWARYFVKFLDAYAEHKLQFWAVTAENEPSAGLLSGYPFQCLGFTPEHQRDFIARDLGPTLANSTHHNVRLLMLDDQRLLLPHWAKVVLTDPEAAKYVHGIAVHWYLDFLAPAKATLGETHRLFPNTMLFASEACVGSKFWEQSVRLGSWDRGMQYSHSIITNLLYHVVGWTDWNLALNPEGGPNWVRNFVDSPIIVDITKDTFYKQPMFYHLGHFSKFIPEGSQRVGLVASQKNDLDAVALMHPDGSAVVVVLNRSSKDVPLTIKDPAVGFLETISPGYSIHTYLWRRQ
- assay-procedure: activation of GCase in a live cell PFB assay in HELA cells
- Assay type: cell-based
- experimental-conditions: activation of GCase, EC50 ranges
Reported EC50 values follow for various molecules

Illustrative cases are given below, each with its answer.
O=C(c1ccc(C(F)(F)F)cn1)N1CCC2(CC1)CN(c1cnc3cnn(CC(F)F)c3n1)C2 [Cmpd 330]	10 to 50 µM
Cc1nc(N2CC3(CCN(c4ncc5c(C)nn(CC(F)F)c5n4)C3)C2)cc(C(F)(F)F)n1 [Cmpd 502]	< 10 µM
O=C1N(c2cc(C(F)(F)F)ccn2)CCC12CCN(c1ncc3cnn(CC(F)F)c3n1)CC2 [Cmpd 285]	10 to 50 µM

As a next step, examine the molecule that follows.
Field request: EC50 | item: FC(F)Cn1ncc2ncc(N3CC4(CCCN(c5ccc(C(F)(F)F)cn5)C4)C3)nc21 [Compound 14]
10 to 50 µM
